Test system: MM.1S cells
protocol_description: Proliferation inhibition (IC50) in MM.1S cells, cell viability assay
experimental_conditions: Homo sapiens, MM1.S, 72 h, read-out: IC50 (nM), proliferation inhibitory activity of MM.1S cells (half inhibitory concentration)
So basically every entry gets a class from its IC50, ranges being range 1: < 0.1 nM; range 2: ≥ 0.1 nM and < 0.5 nM; range 3: ≥ 0.5 nM

Below are worked cases with known answers.
(Q) Determine which band this compound sits in: O=C1CCC(N2C(=O)c3cccc(SCCc4ccc(CN5CCCCC5)cc4)c3C2=O)C(=O)N1 (stereo not shown)
(A) range 3

(Q) Category lookup for the compound O=C1CCC(N2Cc3c(SCCCCCCCN4C[C@H]5CCCC[C@H]5C4)cccc3C2=O)C(=O)N1 (stereo partly shown)
(A) range 1

(Q) Sort into band: O=C1CCC(N2Cc3c(SCc4ccc(CCN5CCC6(CC5)CC6)cc4)cccc3C2=O)C(=O)N1 (stereo not shown)
(A) range 1

(Q) Any idea which band O=C1CCC(N2Cc3c(SCCCCCN4CCNCC4)cccc3C2=O)C(=O)N1 (stereo not shown) is in?
(A) range 3

(Q) Which IC50 category applies to CC1CC(C)CN(Cc2ccc(CSc3cccc4c3CN(C3CCC(=O)NC3=O)C4=O)cc2)C1 (stereo not shown) here?
(A) range 2

New cases:
(Q) Bin this entry: O=C1CCC(N2C(=O)c3cccc(SCCCCCCCNC45CC6CC(CC(C6)C4)C5)c3C2=O)C(=O)N1 (stereo not shown)
(A) range 1

(Q) // return the class label for CC1(C)[C@@H]2CC[C@@]1(C)[C@@H](NCCCCCCSc1cccc3c1CN(C1CCC(=O)NC1=O)C3=O)C2 (stereo partly shown)
(A) range 1

(Q) Would you mind sorting O=C1CCC(N2Cc3c(SCCCCCCCCNc4ncnc5ccccc45)cccc3C2=O)C(=O)N1 (stereo not shown) into the appropriate category?
(A) range 2

* * *

Tested on: MM.1S cells
protocol_description: Proliferation inhibition (IC50) in MM.1S cells, cell viability assay
experimental_conditions: Homo sapiens, MM1.S, 72 h, read-out: IC50 (nM), proliferation inhibitory activity of MM.1S cells (half inhibitory concentration)
Cut-off 0.4 nM on IC50: below means Condition met, at or above means Condition not met.

(Q) Identify whether the compound O=C1CCC(N2C(=O)c3cccc(SCc4ccc(CCCN5CCCCC5)cc4)c3C2=O)C(=O)N1 (centres unmarked) records IC50 below 0.4 nM.
(A) Condition met

(Q) In the record for CC1CN(CCCCCCCCSc2cccc3c2CN(C2CCC(=O)NC2=O)C3=O)CC(C)N1 (centres unmarked) , is IC50 less than 0.4 nM?
(A) Condition not met

(Q) Is IC50 of O=C1CCC(N2C(=O)c3cccc(SCCCCCCCNC4CCCCC4)c3C2=O)C(=O)N1 (centres unmarked) strictly below 0.4 nM?
(A) Condition not met

(Q) Record O=C1CCC(N2Cc3c(SCc4ccc(CCN5CCCCC5)cc4)cccc3C2=O)C(=O)N1 (centres unmarked) : is its IC50 strictly below 0.4 nM?
(A) Condition met

(Q) # strict comparison: is reported IC50 < 0.4 nM? input = O=C1CCC(N2Cc3c(SCCCCCCCCCCCN4CCOCC4)cccc3C2=O)C(=O)N1 (centres unmarked)
(A) Condition met

***
(Q) # check: IC50 < 0.4 nM for CNCCCCCSc1cccc2c1CN(C1CCC(=O)NC1=O)C2=O (centres unmarked)
(A) Condition not met

(Q) Below 0.4 nM on IC50? Entry O=C1CCC(N2Cc3c(SCCCCCCCN[C@@H]4CN5CCC4CC5)cccc3C2=O)C(=O)N1 (some centres unmarked)
(A) Condition not met

(Q) In the record for CN(CCCCCCCSc1cccc2c1CN(C1CCC(=O)NC1=O)C2=O)[C@H]1C[C@H]2CC[C@]1(C)C2(C)C (some centres unmarked) , is IC50 less than 0.4 nM?
(A) Condition met
